Value source: patent US20180305450A1

system under test: T1, recombinant biotinylated human PAR2 extracellular domain (residues 1-75), N-terminal AviTag, C-terminal Flag … (human, UniProt P55085 26-75, biotin on the AviTag (enzymatic biotinylation))
T1 construct: also called Bio-human-PAR2 ECD; human PAR2 ECD; not shown: N-terminal AviTag (Avidity LLC); C-terminal Flag and poly Histidine tags
T1 sequence (P55085 26-75): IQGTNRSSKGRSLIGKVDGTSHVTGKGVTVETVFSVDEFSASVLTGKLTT
method summary: HTRF competition with Par0067 IgG, pH 7.4, scFv
assay readout: pIC50
Answers are plain numbers, as −log10 of the molar value.

binder: PaB670097 scFv (scFv, V domains shown, purified scFv; also called ZZ1ODT-E11) VH: EVQLLESGGGLVQPGGSLRLSCAASGFTFSSYAMNWVRQAPGKGLEWVSTIHHSGHLHSYHHHVKGRFTISRDNSKNTLYLQMNSLRAEDTAVYYCARINNDPMDVWGQGTLVTVSS VL: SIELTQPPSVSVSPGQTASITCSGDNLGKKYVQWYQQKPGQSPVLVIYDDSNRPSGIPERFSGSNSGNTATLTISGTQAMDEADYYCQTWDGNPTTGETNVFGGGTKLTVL
observed result: 7.66

Okay, next one:
The binder PaB670107 scFv (scFv, V domains shown, purified scFv; also called ZZ1RD3-D09) VH: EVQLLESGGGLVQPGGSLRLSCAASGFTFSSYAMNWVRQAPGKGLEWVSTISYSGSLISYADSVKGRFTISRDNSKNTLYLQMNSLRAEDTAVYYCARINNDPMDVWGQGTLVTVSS VL: SIELTQPPSVSVSPGQTASITCSGDNLGKKYVQWYQQKPGQSPVLVIYDDSNRPSGIPERFSGSNSGNTATLTISGTQAMDEADYYCHHWHHNPTHHETNVFGGGTKLTVL showed pIC50 equal to 7.37
